B1: SLC35F2 (parent)
chain: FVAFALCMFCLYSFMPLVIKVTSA

variants of: B1; assay: protein stability index of a GFP-peptide fusion (GPS, HEK-293T) (PSI 1-6); higher = more stable; conditions: c terminus: a fixed tail appended;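 further: lentivirally expressed fusions sorted by FACS into six bins by GFP to DsRed ratio, PSI derived from sequencing read proportions per bin multiplied by bin number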
Here the recorded protein stability index is given for each entry.
Give a plain numeric answer without units written out.

INSERT INTO measurements (mutationcode, quantitativeresult) VALUES
  ('V21W', 3.02),
  ('C7A', 2.45),
  ('K20F', 2.03),
  ('P16D', 2.99),
  ('F9E', 3.49),
  ('V21Q', 1.85);

Q: Fill in the blank: the reported protein stability index of L17C is ____.
Result: 1.91

Q: Fill in the blank: the reported protein stability index of K20M is ____.
Result: 2.62

Q: Fill in the blank: the reported protein stability index of L17V is ____.
Result: 3.13

Q: Fill in the blank: the reported protein stability index of S23Q is ____.
Result: 2.39

Q: Fill in the blank: the reported protein stability index of I19M is ____.
Result: 2.48

Q: Fill in the blank: the reported protein stability index of S13P is ____.
Result: 2.15

Q: Fill in the blank: the reported protein stability index of V18E is ____.
Result: 2.87

Q: Fill in the blank: the reported protein stability index of S13D is ____.
Result: 4.24

Q: Fill in the blank: the reported protein stability index of A5V is ____.
Result: 2.75

Q: Fill in the blank: the reported protein stability index of L17W is ____.
Result: 2.18

Q: Fill in the blank: the reported protein stability index of V2I is ____.
Result: 4.37

Q: Fill in the blank: the reported protein stability index of S13G is ____.
Result: 3.42

Q: Fill in the blank: the reported protein stability index of F1G is ____.
Result: 3.04

Q: Fill in the blank: the reported protein stability index of A3I is ____.
Result: 2.84

Q: Fill in the blank: the reported protein stability index of M8S is ____.
Result: 3.3

Q: Fill in the blank: the reported protein stability index of P16E is ____.
Result: 1.85
